System: RBL-2H3 cells
Test: Maximum tolerated concentration (cytotoxicity by lactate dehydrogenase release)
Type: cell-based, rat
Settings: highest concentration not causing cytotoxicity (LDH release)
Structures can show the parent of a compound that is named as a salt.
Listing of entries alongside the reported MTC (maximum tolerated concentration).

- Molecule: "CCCCCCCCCCCCCC[N+](C)(C)CC(=O)N(C)C[C@H](O)[C@@H](O)[C@H](O)[C@H](O)CO"
  Target entity: "RBL-2H3 cells"
  Reading unit: "µM"
  MTC (maximum tolerated concentration): 150
- Molecule: "CCCCCCCCCCCCN(C)CC(=O)N(C)C[C@H](O)[C@@H](O)[C@H](O)[C@H](O)CO"
  Target entity: "RBL-2H3 cells"
  Reading unit: "µM"
  MTC (maximum tolerated concentration): 100
- Molecule: "CCCCCCCCCCCCCCCCOP(=O)([O-])OCC[N+](C)(C)C [Miltefosine, reference compound]"
  Target entity: "RBL-2H3 cells"
  Reading unit: "µM"
  MTC (maximum tolerated concentration): 25
- Molecule: "CCCCCCCCCCCCCCN(C)CC(=O)N(C)C[C@H](O)[C@@H](O)[C@H](O)[C@H](O)CO"
  Target entity: "RBL-2H3 cells"
  Reading unit: "µM"
  MTC (maximum tolerated concentration): 50
- Molecule: "CCCCCCCCCCCCCC[N+](C)(C)CC(=O)N(C)CC(O)CO (centres unmarked) [Compound 1d, trifluoroacetate]"
  Target entity: "RBL-2H3 cells"
  Reading unit: "µM"
  MTC (maximum tolerated concentration): 75

---

# SI (safety index) listing for each entry below
System: RBL-2H3 cells
Assay: Maximum tolerated concentration (cytotoxicity by lactate dehydrogenase release)
Format: cell-based, rat
Conditions: ratio between MTC and IC50
Counter-ions that a name gives are not always drawn.

- Compound: "CCCCCCCCCCCCN(C)CC(=O)N(C)C[C@H](O)[C@@H](O)[C@H](O)[C@H](O)CO [Compound 1c]"
  SI (safety index): 8.1
- Compound: "CCCCCCCCCCCCCCCCOP(=O)([O-])OCC[N+](C)(C)C [Miltefosine, reference compound]"
  SI (safety index): 6.0
- Compound: "CCCCCCCCCCCCCC[N+](C)(C)CC(=O)N(C)CC(O)CO (centres unmarked) [Compound 1d, trifluoroacetate]"
  SI (safety index): 24.2
- Compound: "CCCCCCCCCCCCCCN(C)CC(=O)N(C)C[C@H](O)[C@@H](O)[C@H](O)[C@H](O)CO [Compound 1b]"
  SI (safety index): 10.2
- Compound: "CCCCCCCCCCCCCC[N+](C)(C)CC(=O)N(C)C[C@H](O)[C@@H](O)[C@H](O)[C@H](O)CO [Compound 1a]"
  SI (safety index): 39.5

src = patent US10143668B2
